Target: T1, monkey C5-mmh (monkey, UniProt P01031 19-1676 (human entry), limits assumed)
T1 construct: Recombinant monkey C5 with a C-terminal myc-myc-hexahistidine tag
T1 chain: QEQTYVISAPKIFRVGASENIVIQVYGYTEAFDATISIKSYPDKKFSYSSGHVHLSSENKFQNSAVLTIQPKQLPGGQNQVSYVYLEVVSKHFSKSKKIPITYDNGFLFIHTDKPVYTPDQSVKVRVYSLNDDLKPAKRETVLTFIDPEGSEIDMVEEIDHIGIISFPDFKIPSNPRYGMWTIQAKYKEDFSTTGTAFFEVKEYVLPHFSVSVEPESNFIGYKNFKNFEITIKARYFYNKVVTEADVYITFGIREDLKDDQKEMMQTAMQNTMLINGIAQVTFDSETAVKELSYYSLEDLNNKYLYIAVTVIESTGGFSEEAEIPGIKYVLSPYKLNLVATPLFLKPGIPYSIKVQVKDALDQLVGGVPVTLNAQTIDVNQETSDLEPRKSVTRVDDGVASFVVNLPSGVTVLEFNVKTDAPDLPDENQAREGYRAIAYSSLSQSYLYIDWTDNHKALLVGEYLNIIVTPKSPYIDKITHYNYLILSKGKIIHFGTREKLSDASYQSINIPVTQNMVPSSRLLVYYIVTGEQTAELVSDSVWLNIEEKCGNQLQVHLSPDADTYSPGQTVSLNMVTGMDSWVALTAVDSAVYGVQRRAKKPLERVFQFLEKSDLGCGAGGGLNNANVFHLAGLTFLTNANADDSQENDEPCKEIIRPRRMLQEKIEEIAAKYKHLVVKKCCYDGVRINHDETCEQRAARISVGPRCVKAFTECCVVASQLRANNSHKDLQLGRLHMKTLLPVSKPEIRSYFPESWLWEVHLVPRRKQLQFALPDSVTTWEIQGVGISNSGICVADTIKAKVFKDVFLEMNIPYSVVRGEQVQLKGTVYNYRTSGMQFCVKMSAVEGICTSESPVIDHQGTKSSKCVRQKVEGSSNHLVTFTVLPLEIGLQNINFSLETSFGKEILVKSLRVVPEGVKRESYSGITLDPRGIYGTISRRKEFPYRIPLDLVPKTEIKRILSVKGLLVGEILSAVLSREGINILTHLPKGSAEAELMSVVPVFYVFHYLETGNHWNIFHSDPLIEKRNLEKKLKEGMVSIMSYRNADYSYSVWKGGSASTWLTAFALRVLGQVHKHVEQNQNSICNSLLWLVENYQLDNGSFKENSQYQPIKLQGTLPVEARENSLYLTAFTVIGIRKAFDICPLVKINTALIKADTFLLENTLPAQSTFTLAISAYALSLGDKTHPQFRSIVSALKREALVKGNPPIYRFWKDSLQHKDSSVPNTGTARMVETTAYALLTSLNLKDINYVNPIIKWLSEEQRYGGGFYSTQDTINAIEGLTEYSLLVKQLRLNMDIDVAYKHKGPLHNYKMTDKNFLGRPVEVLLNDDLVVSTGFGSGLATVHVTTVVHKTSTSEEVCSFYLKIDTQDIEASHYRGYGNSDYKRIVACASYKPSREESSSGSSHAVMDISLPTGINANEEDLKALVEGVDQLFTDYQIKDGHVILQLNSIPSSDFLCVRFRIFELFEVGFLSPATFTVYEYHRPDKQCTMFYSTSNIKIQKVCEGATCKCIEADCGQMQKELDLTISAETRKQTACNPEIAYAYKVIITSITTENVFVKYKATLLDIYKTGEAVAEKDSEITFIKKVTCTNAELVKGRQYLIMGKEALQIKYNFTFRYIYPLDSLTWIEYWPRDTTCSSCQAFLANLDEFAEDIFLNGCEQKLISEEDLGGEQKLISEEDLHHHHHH
Assay: SPR, mAb captured via anti-hFc, 37C
Mark each entry Y if its Kd sits below 9 nM, and N for all others.

The examples below pair each entry with its known result.
H4H12164P (antibody, human IgG4, V domains shown, Human IgG4 Fc with S108P hinge mutation (H4H)) VH: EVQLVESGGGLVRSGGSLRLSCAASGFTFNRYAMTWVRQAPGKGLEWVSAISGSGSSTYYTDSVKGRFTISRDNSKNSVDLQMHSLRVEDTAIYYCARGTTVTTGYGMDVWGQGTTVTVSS VL: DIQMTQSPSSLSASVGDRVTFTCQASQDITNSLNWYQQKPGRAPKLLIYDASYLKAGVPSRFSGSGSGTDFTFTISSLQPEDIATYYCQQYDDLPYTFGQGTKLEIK
Y
H4H12170P (antibody, human IgG4, V domains shown, Human IgG4 Fc with S108P hinge mutation (H4H)) VH: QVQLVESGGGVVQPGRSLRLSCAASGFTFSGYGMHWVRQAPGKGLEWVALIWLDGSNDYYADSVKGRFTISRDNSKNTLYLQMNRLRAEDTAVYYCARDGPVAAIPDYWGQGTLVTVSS VL: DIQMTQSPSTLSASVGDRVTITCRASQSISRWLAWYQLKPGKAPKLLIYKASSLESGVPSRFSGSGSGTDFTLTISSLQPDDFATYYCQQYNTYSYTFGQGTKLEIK
Y

Next binder, please.
Does the reported Kd of H4H12166P5 (antibody, human IgG4, V domains shown, Histidine-mutated CDR variant of H4H12166P; human IgG4 Fc with S108P) VH: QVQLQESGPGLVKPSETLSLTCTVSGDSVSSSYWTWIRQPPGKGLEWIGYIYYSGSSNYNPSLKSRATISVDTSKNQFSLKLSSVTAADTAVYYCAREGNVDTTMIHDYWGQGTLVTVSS VL: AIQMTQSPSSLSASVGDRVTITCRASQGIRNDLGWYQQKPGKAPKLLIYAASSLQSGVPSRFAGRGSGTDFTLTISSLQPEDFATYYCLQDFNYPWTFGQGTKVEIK stay below 9 nM?
N

Reference source: patent US20170355757A1
